IRF reporter overview
# Test system: RAW-Dual (murine macrophage reporter line)
# protocol summary: IRF reporter (Lucia luciferase) activity fold change vs agonist alone; higher = enhanced IRF activity
# condition description: modulator concentration 10 µM; agonist: LPS 0.1 ug/mL
measured attribute: IRF reporter

[[record]]
compound = "CCCCCn1c(=O)c(C(=O)NCc2cccnc2)c(O)c2ccccc21"
observed_result = 1.31

[[record]]
compound = "COc1ccc(OC)c(C=C2C(=O)NC(=O)NC2=O)c1"
observed_result = 0.995

[[record]]
compound = "COc1cc2c(c(OC)c1OC)-c1ccc(OC)c(=O)cc1C(NC(C)=O)CC2 (configuration not stated)"
observed_result = 1.87

[[record]]
compound = "NNC(=O)c1ccccc1"
observed_result = 0.914

[[record]]
compound = "Cc1cc(C(=O)N2C3CCC2c2cncnc2C3)c(C)o1 (configuration not stated)"
observed_result = 0.94

[[record]]
compound = "COc1cc(C2c3cc4c(cc3C(O)C3COC(=O)C23)OCO4)cc(OC)c1OC (configuration not stated)"
observed_result = 1.19

[[record]]
compound = "O=C(NCCN1CCOCC1)c1ccc(Cl)nc1"
observed_result = 1.12

[[record]]
compound = "C[C@@H]1CC[C@H]2[C@@H](C)C(=O)O[C@@H]3O[C@@]4(C)CC[C@@H]1[C@]32OO4"
observed_result = 1.13

[[record]]
compound = "CCNCC.O=C(O)Cc1ccccc1Nc1c(Cl)cccc1Cl"
observed_result = 1.21

[[record]]
compound = "CCOc1cc(C=C2N=C(c3cccc(C)c3)OC2=O)ccc1OC(=O)Cc1ccccc1"
observed_result = 1.19

[[record]]
compound = "O=C1NC(=O)C(=Cc2cc(Br)ccc2OCc2ccc(Cl)cc2Cl)C(=O)N1"
observed_result = 0.751

[[record]]
compound = "CN1C2CCC1CC(OC(=O)C(CO)c1ccccc1)C2 (configuration not stated)"
observed_result = 1.24

[[record]]
compound = "CCC1(c2ccc(N)cc2)CCC(=O)NC1=O (configuration not stated)"
observed_result = 0.913

[[record]]
compound = "COc1cc2c(c(OC)c1OC)-c1ccc(OC)c(=O)cc1[C@@H](NC(C)=O)CC2"
observed_result = 1.5

[[record]]
compound = "Nc1nc(N)nc(NC2CC2)n1"
observed_result = 0.992

[[record]]
compound = "O=C(CCCN1CCC(n2c(=O)[nH]c3ccccc32)CC1)c1ccc(F)cc1 [Prestw-484]"
observed_result = 1.1

[[record]]
compound = "Cc1cccc(-n2c(C)nc3ccccc3c2=O)n1"
observed_result = 1.02

